target: BRD4 (BD1+BD2) bromodomain (Homo sapiens (Human), UniProt O60885); assay: BRD4 binding inhibition (AlphaScreen, GST-BRD4 vs tetraacetylated histone H4 peptide); settings: GST-BRD4 (BD1+BD2) / biotinylated acetyl-histone H4 (Lys5,8,12,16) peptide; read-out: IC50, BRD4 binding inhibition
pIC50: −log10 of the molar value.
measure: pIC50

Consider the reported pIC50 for these compounds:
>>> print(df.to_string())
                                 cpd_smiles                              study_target  measure  measurement
0  COCCOc1ccc2c(c1)nc(NCCCCNC(=O)SC(C)C)c1nnc(C)n12  BRD4 (BD1+BD2) bromodomain (Homo sapiens (Human), UniProt O60885)    pIC50       ≥ 8.00
1  COc1c(C)ccc2c1nc(NCCCCNC(=O)OC(C)(C)C)c1nnc(C)n12  BRD4 (BD1+BD2) bromodomain (Homo sapiens (Human), UniProt O60885)    pIC50       ≥ 7.30

For the compound COCCOc1cc2nc(NCCCCNC(=O)CC(C)C)c3nnc(C)n3c2cc1OCCOC , what pIC50 is on record?
≥ 7.30

###

target: BRD4 (BD1+BD2) bromodomain (Homo sapiens (Human)); test: BRD4 binding inhibition (AlphaScreen, GST-BRD4 vs tetraacetylated histone H4 peptide); settings: GST-BRD4 (BD1+BD2) vs biotinylated acetyl-histone H4 peptide, AlphaScreen; read-out: BRD4 IC50
pIC50: −log10 of the molar value.
measure: pIC50

>>> print(df.to_string())
                                   molecule                              study_target  measurement
0  CCOc1cc2nc(NCCCCNC(=O)OC(C)C)c3nnc(C)n3c2cc1OCC  BRD4 (BD1+BD2) bromodomain (Homo sapiens (Human))         7.59
1  Cc1nnc2c(NCCCCOC(=O)C(C)(C)C)nc3ccccc3n12  BRD4 (BD1+BD2) bromodomain (Homo sapiens (Human))         7.33
2  Cc1nnc2c(NCCCCNC(=O)CC(C)C)nc3cc(N4CCOCC4)ccc3n12  BRD4 (BD1+BD2) bromodomain (Homo sapiens (Human))         8.00
3  Cc1nnc2c(NCCCCNC(=O)OC(C)(C)C)nc3cc4c(cc3n12)OCCO4  BRD4 (BD1+BD2) bromodomain (Homo sapiens (Human))         7.77
4  CCOc1ccc2c(c1)nc(NCCCCNC(=O)CC(C)C)c1nnc(C)n12  BRD4 (BD1+BD2) bromodomain (Homo sapiens (Human))         7.80
5  COc1ccc2c(c1)nc(NCCCCNC(=O)Cc1ccccc1)c1nnc(C)n12  BRD4 (BD1+BD2) bromodomain (Homo sapiens (Human))         7.46
6  Cc1ccc2nc(NCCCCNC(=O)Nc3ccccc3)c3nnc(C)n3c2c1  BRD4 (BD1+BD2) bromodomain (Homo sapiens (Human))         7.14
7  Cc1nnc2c(NCCCCNC(=O)c3ccc(Cl)nc3Cl)nc3ccccc3n12  BRD4 (BD1+BD2) bromodomain (Homo sapiens (Human))         7.44

I. COc1cc(C)c2c(c1)nc(NCCCCNC(=O)OC(C)(C)C)c1nnc(C)n12
II. COCCOc1ccc2c(c1)nc(NCCCCNC(=O)[C@H](NC(=O)[C@@H](O)C(C)C)C(C)C)c1nnc(C)n12 (stereo in doubt)
Task for the reader: decide whether I or II has the larger pIC50. # respond with the chosen item's label
II

###

molecular target: BRD4 (BD1+BD2) bromodomain (Homo sapiens (Human)); assay: BRD4 binding inhibition (AlphaScreen, GST-BRD4 vs tetraacetylated histone H4 peptide); settings: GST-BRD4 (BD1+BD2) vs biotinylated acetyl-histone H4 peptide, AlphaScreen; read-out: BRD4 IC50
pIC50: −log10 of the molar value.
measure: pIC50

In [3]: df
Out[3]:
                                   compound  measurement
0  COc1cc(C)c2nc(NCCCCN)c3nnc(C)n3c2c1 [Example 159, ditrifluoroacetic acid]         7.62
1  COc1ccc2nc(NCCCCNC(=O)c3ccc(C)nc3Cl)c3nnc(C)n3c2c1 [Example 129]         7.77
2  COc1cc2nc(NCCCCNC(=O)Cc3ccccc3)c3nnc(C)n3c2cc1OC [Example 86]         7.77

###

target: BRD4 (BD1+BD2) bromodomain (Homo sapiens (Human), UniProt O60885); assay: BRD4 binding inhibition (AlphaScreen, GST-BRD4 vs tetraacetylated histone H4 peptide); details: GST-BRD4 (BD1+BD2) vs biotinylated acetyl-histone H4 peptide, AlphaScreen; read-out: BRD4 IC50
measure: IC50 (nM)

Examples with answers:
>>> df
                                 cpd_smiles                              study_target  measure  measurement
0  COc1cc2nc(NCCCCNC(=O)NC3CCCCC3)c3nnc(C)n3c2cc1C(F)(F)F  BRD4 (BD1+BD2) bromodomain (Homo sapiens (Human), UniProt O60885)     IC50           20
1  COc1cc2nc(NCCCCNC(=O)OC(C)C)c3nnc(C)n3c2cc1OC  BRD4 (BD1+BD2) bromodomain (Homo sapiens (Human), UniProt O60885)     IC50           12

1. COCCOc1ccc2c(c1)nc(NCCCCNC(=O)OC(C)(C)C)c1nnc(C)n12
2. COCCOc1cc2c(cc1OC)nc(NCCCCNC(=O)CC(C)C)c1nnc(C)n12
Could you determine which record has the numerically smaller IC50? Candidates: 1 and 2 Identify your pick by its label.
1
(1: 16 nM, 2: 59 nM)

###

target: BRD4 (BD1+BD2) bromodomain (Homo sapiens (Human), UniProt O60885); assay: BRD4 binding inhibition (AlphaScreen, GST-BRD4 vs tetraacetylated histone H4 peptide); details: GST-BRD4 (BD1+BD2) vs biotinylated acetyl-histone H4 peptide, AlphaScreen; read-out: BRD4 IC50
pIC50: −log10 of the molar value.
measure: pIC50

In [3]: df
Out[3]:
                                   molecule  measure  measurement
0  COc1ccc2c(c1)nc(NCCCCNC(=O)C(NC(=O)OC(C)(C)C)C(C)C)c1nnc(C)n12 (stereo not drawn)    pIC50         7.38
1  COc1cc2nc(NCCCCNC(=O)OCC(C)C)c3nnc(C)n3c2cc1C(F)(F)F    pIC50         7.36
2  COc1cc2c(cc1C)nc(NCCCCNC(=O)CC(C)C)c1nnc(C)n12    pIC50         7.28

###

target: BRD4 (BD1+BD2) bromodomain (Homo sapiens (Human)); assay: BRD4 binding inhibition (AlphaScreen, GST-BRD4 vs tetraacetylated histone H4 peptide); details: GST-BRD4 (BD1+BD2) vs biotinylated acetyl-histone H4 peptide, AlphaScreen; read-out: BRD4 IC50
pIC50: −log10 of the molar value.
measure: pIC50

A. CCC(CC)C(=O)NCCCCNc1nc2cc(OCCOC)ccc2n2c(C)nnc12 [Example 381]
B. Cc1noc(C)c1-c1ccc2nc(NCCCCNC(=O)OC(C)(C)C)c3nnc(C)n3c2c1 [Example 578]
Between A and B , which one has the lower reported pIC50 value? Refer to your chosen entry by its label in the reply.
B

1. COc1cc2c(nc(NCCCCNC(=O)CC(C)C)c3nnc(C)n32)c(OC)c1OC [Example 195]
2. COCCOc1ccc2c(c1)nc(NCCCCNC(=O)[C@@H](NC(=O)OC(C)C)C(C)C)c1nnc(C)n12 [Example 400]
Which one would you say has the larger pIC50 value: 1 , or 2 ? When you have decided, please share the label of that item.
2

P. COc1cc2nc(NCCCCNC(=O)[C@H](O)C(C)C)c3nnc(C)n3c2cc1C(F)(F)F [Example 478]
Q. Cc1nnc2c(NCCCCNC(=O)CC(C)C)nc3cc(-c4nc5ccccc5[nH]4)ccc3n12 [Example 224]
R. COCCOc1ccc2c(c1)nc(NCCCCNC(=O)Cc1ccccc1)c1nnc(C)n12 [Example 420]
# rank by pIC50, ascending (min first) Rank them, then answer with their labels in that order.
P, Q, R

1. CCC(C)OC(=O)NCCCCNc1nc2cc(OCCOC)ccc2n2c(C)nnc12 (centres unmarked) [Example 368]
2. COc1cc2nc(NCCCCNC(=O)CC(C)C)c3nnc(C)n3c2cc1Cc1ccc([N+](=O)[O-])cc1 [Example 339]
3. COc1cc2nc(NCCCCNC(=O)CC(C)(C)C)c3nnc(C)n3c2cc1OC [Example 75]
Arrange these molecules by their pIC50, starting with the largest number. Labels, requested order.
1, 3, 2
(1: 8.00, 3: 7.55, 2: 7.34)
